- PROCEDURE SUMMARY: ATG_M_32_TRANS: Attagene TRANS-FACTORIAL HepG2 Assay for M32 Transcription Factor (Internal Marker) (AID 2282984);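 for Outcome: transcript level of a background control reporter unit measured by RT-PCR and capillary electrophoresis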
- RUN CONDITIONS: HepG2 Attagene TRANS M32 internal marker reporter
Records with an inconclusive call do not appear. The source made the active and inactive calls. Rule for the calls: active = hit-call score of the fitted dose curve at least 0.9, where 1 is the maximum; inconclusive = response in the unintended direction; inactive = score below 0.9.
Outcome codes: label 1 (active), label 0 (inactive)

>>> assigned_label("C=CCOCC(CO)(CO)CO")
"label 0"
>>> assigned_label("Cc1ccc(S(=O)(=O)O)cc1")
"label 0"
>>> assigned_label("CCCCCCCCCCCCCC[n+]1ccccc1")
"label 1"
>>> assigned_label("CC(C)c1c(C(=O)Nc2ccccc2)c(-c2ccccc2)c(-c2ccc(F)cc2)n1CC[C@@H](O)C[C@@H](O)CC(=O)O")
"label 0"
>>> assigned_label("C=CC(=O)OCCC(F)(F)C(F)(F)C(F)(F)C(F)(F)C(F)(F)C(F)(F)C(F)(F)C(F)(F)F")
"label 0"

---

- Read-out: Monocyte Chemoattractant Protein-1 (MCP1), CCL2 (gene 6347)
- PROCEDURE SUMMARY: BSK_4H_MCP1: BioMAP Diversity Plus: 4H Assay for Monocyte Chemoattractant Protein-1 (MCP1) Biomarker Activity (AID 2283018)
- RUN CONDITIONS: primary human endothelial cells (HUVEC); actives raise or lower the signal
- Experimental: BSK_4H is a cell-based, multiplexed-readout assay that uses umbilical vein endothelium, a human vascular primary cell, with measurements taken at 24 hours after chemical dosing in a 96-well plate.BSK_4H_MCP1 is an assay component measured in the BSK_4H assay. It measures MCP-1 antibody related to regulation of gene expression using ELISA technology.Data from the assay component BSK_4H_MCP1 was analyzed into 1 assay endpoint. […]
Active and inactive are the calls of the source. The calls were made as follows: active = hit-call score of the fitted dose curve at least 0.9, where 1 is the maximum; inactive = score below 0.9.
Classes used: active, inactive

>>> assigned_label("CCCCCCCCCCCCCCCCCC[N+](C)(C)Cc1ccccc1")
"active"
>>> assigned_label("CCCCCCCCCCCCOS(=O)(=O)O")
"inactive"
>>> assigned_label("CCOC(=O)CN[C@@H](C(=O)N1CC[C@H]1C(=O)NCc1ccc(/C(N)=N/O)cc1)C1CCCCC1")
"inactive"
>>> assigned_label("Cc1ccc(N=Nc2c(O)ccc3ccccc23)c(C)c1")
"inactive"
>>> assigned_label("O=C(O)CCC(F)(F)C(F)(F)C(F)(F)C(F)(F)C(F)(F)C(F)(F)F")
"inactive"
>>> assigned_label("O=P(O)(O)CCC(F)(F)C(F)(F)C(F)(F)C(F)(F)C(F)(F)C(F)(F)C(F)(F)C(F)(F)F")
"inactive"
>>> assigned_label("CCCCCCCCCCCCCCC")
"inactive"
>>> assigned_label("CN(CCO)S(=O)(=O)C(F)(F)C(F)(F)C(F)(F)C(F)(F)C(F)(F)C(F)(F)C(F)(F)C(F)(F)F")
"inactive"
>>> assigned_label("O=P(O)(O)CCC(F)(F)C(F)(F)C(F)(F)C(F)(F)C(F)(F)C(F)(F)F")
"inactive"
>>> assigned_label("CCC(C)c1ccccc1O (stereo not given)")
"inactive"
>>> assigned_label("CCCCC=O")
"inactive"
>>> assigned_label("O=C(NO)c1ccccc1")
"inactive"
>>> assigned_label("COc1cc(OC)nc(NC(=O)NS(=O)(=O)Nc2ccccc2C(=O)N(C)C)n1")
"inactive"
>>> assigned_label("Cc1ccc(C(=O)c2ccccc2)cc1")
"active"
>>> assigned_label("COC1=CC(=O)C[C@@H](C)[C@]12Oc1c(Cl)c(OC)cc(OC)c1C2=O")
"inactive"
>>> assigned_label("O=S(=O)(O)C(F)(F)C(F)(F)C(F)(F)C(F)(F)C(F)(F)C(F)(F)C(F)(F)C(F)(F)C(F)(F)C(F)(F)F")
"inactive"
>>> assigned_label("C=CC(C)(CCC=C(C)C)OC(C)=O (stereo not given)")
"active"
>>> assigned_label("O=C(NCc1ncc(C(F)(F)F)cc1Cl)c1c(Cl)cccc1Cl")
"inactive"
>>> assigned_label("Oc1ccc(Cc2ccccc2O)cc1")
"inactive"
>>> assigned_label("NC(=NCCCCCCN=C(N)/N=C(\\N)Nc1ccc(Cl)cc1)/N=C(\\N)Nc1ccc(Cl)cc1")
"active"
>>> assigned_label("O=C(c1ccccc1)c1ccccc1")
"inactive"
>>> assigned_label("COCN(COC)c1nc(N(COC)COC)nc(N(COC)COC)n1")
"inactive"
>>> assigned_label("CCCCCc1ccc(O)cc1")
"active"
>>> assigned_label("CCCCc1oc2ccccc2c1C(=O)c1cc(I)c(OCCN(CC)CC)c(I)c1")
"active"
>>> assigned_label("C=CC(=O)OCCC(F)(F)C(F)(F)C(F)(F)C(F)(F)C(F)(F)C(F)(F)C(F)(F)C(F)(F)F")
"inactive"
